# ASSAY_PROCEDURE: Recovery (mass balance) of flavonoids during Caco-2 transport assay
# Assay type: in vitro ADME
# CONDITION_CONTEXT: human, Caco-2, mass balance, transport basolateral to apical, both sides of insert plus cells; read-out: Recovery (B to A, %)

| COMPOUND | recovery |
| --- | --- |
| O=c1c(-c2ccc(O)cc2)coc2c([C@@H]3O[C@H](CO)[C@@H](O)[C@H](O)[C@H]3O)c(O)ccc12 | 85.2% |
| O=c1cc(-c2ccc(O)cc2)oc2c([C@@H]3OC[C@H](O)[C@H](O)[C@H]3O)c(O)c([C@@H]3O[C@H](CO)[C@@H](O)[C@H](O)[C@H]3O)c(O)c12 [Compound 8, Schaftoside] | 61.8% |
| COc1ccc(CCC(=O)c2c(O)cc(O[C@@H]3O[C@H](CO)[C@@H](O)[C@H](O)[C@H]3O[C@@H]3O[C@@H](C)[C@H](O)[C@@H](O)[C@H]3O)cc2O)cc1O [Compound 30, Neohesperidin dihydrochalcone] | 79.5% |
| O=c1c(O)c(-c2ccc(O)cc2O)oc2cc(O)cc(O)c12 | 90.1% |
| C[C@@H]1O[C@@H](OC[C@H]2O[C@@H](Oc3c(-c4ccc(O)c(O)c4)oc4cc(O)cc(O)c4c3=O)[C@H](O)[C@@H](O)[C@@H]2O)[C@H](O)[C@H](O)[C@H]1O | 97% |
| C[C@@H]1O[C@@H](O[C@H]2[C@H](Oc3cc(O)c4c(c3)O[C@H](c3ccc(O)cc3)CC4=O)O[C@H](CO)[C@@H](O)[C@@H]2O)[C@H](O)[C@H](O)[C@H]1O | 82.9% |
| C[C@@H]1O[C@@H](Oc2c(-c3ccc(O)c(O)c3)oc3cc(O)cc(O)c3c2=O)[C@H](O)[C@H](O)[C@H]1O | 76.8% |
